Source: patent US12643905B2

Molecular target: SARS-CoV-2 3CL-protease (Severe acute respiratory syndrome coronavirus 2)
Assay: SARS-CoV-2 3C-like (3CL) protease fluorescence assay (FRET)
Assay type: biochemical
Details: recombinant SARS-CoV-2 3CL-protease 10 nM, 30 min preincubation, run in duplicate; read-out: FRET IC50
pIC50: −log10 of the molar value.
Listing of recorded pIC50 by entry.
recordedEndpoint: pIC50

[[record]]
smilesentry = "CC(C)(C)C[C@@H](C(=O)N1C[C@]2(C[C@H]1C#N)C(=O)Nc1ccccc12)N(CC(F)F)C(=O)C(=O)Nc1ccccn1"
systemtested = "SARS-CoV-2 3CL-protease (Severe acute respiratory syndrome coronavirus 2)"
recordedendpoint = "pIC50"
recordedvalue = "< 6.00"

[[record]]
smilesentry = "CC(C)(C)C[C@@H](C(=O)N1C[C@]2(C[C@H]1C#N)C(=O)Nc1ccccc12)N(CC(F)F)C(=O)C(=O)NC1CC1"
systemtested = "SARS-CoV-2 3CL-protease (Severe acute respiratory syndrome coronavirus 2)"
recordedendpoint = "pIC50"
recordedvalue = "6.00 to 7.00"

[[record]]
smilesentry = "CC(C)C[C@H](NC(=O)C(=O)Nc1ccc(F)cc1)C(=O)N1C[C@]2(C[C@H]1C#N)C(=O)Nc1ccccc12"
systemtested = "SARS-CoV-2 3CL-protease (Severe acute respiratory syndrome coronavirus 2)"
recordedendpoint = "pIC50"
recordedvalue = "> 7.00"

[[record]]
smilesentry = "CC(C)(C)C[C@H](NC(=O)C(=O)NC12CCC(CC1)CC2)C(=O)N1C[C@]2(C[C@H]1C#N)C(=O)Nc1ccccc12"
systemtested = "SARS-CoV-2 3CL-protease (Severe acute respiratory syndrome coronavirus 2)"
recordedendpoint = "pIC50"
recordedvalue = "> 7.00"

[[record]]
smilesentry = "CC(C)(C)C[C@H](NC(=O)C(=O)Nc1c(F)ccc(F)c1F)C(=O)N1C[C@]2(C[C@H]1C#N)C(=O)Nc1ccccc12"
systemtested = "SARS-CoV-2 3CL-protease (Severe acute respiratory syndrome coronavirus 2)"
recordedendpoint = "pIC50"
recordedvalue = "> 7.00"

[[record]]
smilesentry = "N#C[C@@H]1C[C@@]2(CN1C(=O)[C@H](CC1CC1)NC(=O)C(=O)Nc1c(Cl)cc(F)cc1C(F)(F)F)C(=O)Nc1ccccc12"
systemtested = "SARS-CoV-2 3CL-protease (Severe acute respiratory syndrome coronavirus 2)"
recordedendpoint = "pIC50"
recordedvalue = "> 7.00"

[[record]]
smilesentry = "CC(C)(C)C[C@H](NC(=O)C(=O)NC1CCCCC1)C(=O)N1C[C@]2(C[C@H]1C#N)C(=O)Nc1ccccc12"
systemtested = "SARS-CoV-2 3CL-protease (Severe acute respiratory syndrome coronavirus 2)"
recordedendpoint = "pIC50"
recordedvalue = "> 7.00"

[[record]]
smilesentry = "N#C[C@@H]1C[C@@]2(CN1C(=O)[C@H](CC1CC1)NC(=O)C(=O)Nc1cccc(C(F)(F)F)n1)C(=O)Nc1ccccc12"
systemtested = "SARS-CoV-2 3CL-protease (Severe acute respiratory syndrome coronavirus 2)"
recordedendpoint = "pIC50"
recordedvalue = "> 7.00"

[[record]]
smilesentry = "CC(C)(C)C[C@H](NC(=O)C(=O)Nc1ccc(C(F)(F)F)nc1)C(=O)N1C[C@]2(C[C@H]1C#N)C(=O)Nc1ccccc12"
systemtested = "SARS-CoV-2 3CL-protease (Severe acute respiratory syndrome coronavirus 2)"
recordedendpoint = "pIC50"
recordedvalue = "> 7.00"

[[record]]
smilesentry = "CN(C(=O)C(=O)N[C@@H](CC(C)(C)C)C(=O)N1C[C@]2(C[C@H]1C#N)C(=O)Nc1ccccc12)C1CC1"
systemtested = "SARS-CoV-2 3CL-protease (Severe acute respiratory syndrome coronavirus 2)"
recordedendpoint = "pIC50"
recordedvalue = "< 6.00"

